# Test system: Fibroblast
# protocol_description: Multiplex assay against human fibroblast
# Format: toxicity, cell-based
# assay_conditions: 48 h, 1 µM, compound concentration 1 uM, replicate 2
The threshold is inclusive: Population Healthy Nuclei (%) of exactly 70% counts as condition met; values below receive condition not met.

Use the examples below as a reference point.
>>> df
                                   compound       answer_label
0  COc1cc2ncn(-c3cc(OCc4ccccc4C(F)(F)F)c(C(N)=O)s3)c2cc1OC [GW843682X]      condition met
1  CC(C)NC(=O)N1CC[C@H](NC2=Nc3cc(F)ccc3N(CC(F)F)c3ccc(Cl)cc32)C1  condition not met
2  O=C(c1cc2c(cc1F)OC(c1ccc(F)cc1)(c1ccc(Cl)cc1Cl)O2)N1CCOCC1 (centres undefined)      condition met
3  O=c1cc(N2CCOCC2)oc2c(-c3cccc4c3sc3ccccc34)cccc12      condition met
4  CCc1ccc(OCc2ccccc2C(=O)Nc2ccc3nc(C)cc(N)c3c2)cc1.Cl  condition not met
5  Cl.O=C(O)c1cc(-c2ccc(C3CCNCC3)cc2)c2ccc(-c3ccc(C(F)(F)F)cc3)cc2c1      condition met

Next up:
q: Quick check, Population Healthy Nuclei (%) >= 70%? `CC(C)c1noc(N2CCC(COc3ccc(-c4ccc(S(C)(=O)=O)cc4)nc3)CC2)n1`
a: condition met

---

Each record here notes measured Total Cell Count.
# System: U2OS
# protocol_description: Multiplex assay against U2OS
# Assay type: toxicity, cell-based
# assay_conditions: human, 12 h, 1 µM, compound concentration 1 uM, replicate 1
Format: numeric value only, no unit, no commentary.

>>> print(df.to_string())
                      smiles_representation  reported_measurement
0  C=CC(=O)Nc1ccc2[nH]c(=O)n(C3CCN(Cc4ccc(-c5nc6cc[nH]c(=O)c6cc5-c5ccccc5)cc4)CC3)c2c1                   158
1  Cc1c[nH]c2nccc(Oc3c(F)cc(Nc4cc(Cl)nc(N)n4)cc3F)c12                   200
2  COc1ccccc1CN[C@H]1C2CCN(CC2)[C@H]1C(c1ccccc1)c1ccccc1                   136
3  COc1cc(Nc2nccc(-c3cnn4nc(OC)ccc34)n2)cc(C(F)(F)F)c1                   189

Okay, now this compound:
q: In one line, give reported Total Cell Count of the entry `CCc1ccc(OCc2ccccc2C(=O)Nc2ccc3nc(C)cc(N)c3c2)cc1.Cl` .
a: 191

---

# Tested on: HEK-293T
# protocol_description: Multiplex assay against HEK293T
# Type: toxicity, cell-based
# assay_conditions: human, 24 h, 10 µM, compound concentration 10 uM, replicate 2
The label depends only on Population Membrane Permeable-Phenotype (%): Fulfilled if it is at least 4%, Not fulfilled if it is smaller.

Reference set (3 entries):
In [3]: df
Out[3]:
                      smiles_representation   answer_label
0  CN1CCN(Cc2ccc(Nc3ncc(Cl)c(Nc4ccccc4S(=O)(=O)N(C)C)n3)cc2)CC1  Not fulfilled
1  CC(C)Oc1ccccc1C(=O)Nc1ccccc1C(=O)Nc1cccc(S(=O)(=O)C(F)(F)F)c1      Fulfilled
2  CC(C)NC(=O)N1CC[C@H](NC2=Nc3cc(F)ccc3N(CC(F)F)c3ccc(Cl)cc32)C1      Fulfilled

Could you now look at the following molecule, please?
q: Given `CCc1ccc(OCc2ccccc2C(=O)Nc2ccc3nc(C)cc(N)c3c2)cc1.Cl` , state whether its Population Membrane Permeable-Phenotype (%) is at least 4%.
a: Fulfilled

---

# Test system: U2OS
# protocol_description: Multiplex assay against U2OS
# Assay type: toxicity, cell-based
# assay_conditions: human, 12 h, 10 µM, compound concentration 10 uM, replicate 2
# Population Healthy Nuclei (%) per record follows
# output: bare number, implied unit %

>>> print(df.to_string())
                                   compound  system_name  reported_measurement
0  Cc1ccc(C)c(Oc2ccncc2C(=O)N2CCN(C3CC3)c3ccccc32)c1         U2OS                    72
1  COc1ccccc1CN[C@H]1C2CCN(CC2)[C@H]1C(c1ccccc1)c1ccccc1 [CP-96345]         U2OS                    86
2  CC1=C(C(=O)Nc2cc3cn[nH]c3cc2F)C(c2ccc(C(F)(F)F)cc2)CC(=O)N1 (configuration not stated)         U2OS                    70
3  COC(=O)C1=C(C)NC(C)=C(C(=O)OCCCN2CCC(c3ccccc3)(c3ccccc3)CC2)[C@H]1c1cccc([N+](=O)[O-])c1 [NIGULDIPINE]         U2OS                     3
4  Cl.O=C(O)c1cc(-c2ccc(C3CCNCC3)cc2)c2ccc(-c3ccc(C(F)(F)F)cc3)cc2c1         U2OS                    64
5  CC(C)c1noc(N2CCC(COc3ccc(-c4ccc(S(C)(=O)=O)cc4)nc3)CC2)n1 [GSK-1292263]         U2OS                    83

q: Indicate the recorded Population Healthy Nuclei (%) value for this compound: CC(C)CC(=O)Nc1[nH]nc2c1CN(C(=O)C1CCN(C)CC1)C2(C)C [PHA-793887]
a: 78

q: Give the measured Population Healthy Nuclei (%) for `O=c1cc(N2CCOCC2)oc2c(-c3cccc4c3sc3ccccc34)cccc12`
a: 45

q: Given Cc1ccc2c(c1)c1c(n2CCc2ccc(C)nc2)CCN(C)C1 [LATREPIRDINE] , respond with its Population Healthy Nuclei (%).
a: 65

q: Give reported Population Healthy Nuclei (%) value for CN1CCN(Cc2ccc(Nc3ncc(Cl)c(Nc4ccccc4S(=O)(=O)N(C)C)n3)cc2)CC1 [DUBERMATINIB]
a: 31

---

# System: HEK-293T
# protocol_description: Multiplex assay against HEK293T
# Assay type: toxicity, cell-based
# assay_conditions: human, 12 h, 10 µM, compound concentration 10 uM, replicate 1
Population Membrane Permeable-Phenotype (%) of 4% or higher: Satisfied. Under 4%: Not satisfied.

>>> print(df.to_string())
                                   compound   answer_label
0  C=CC(=O)Nc1cccc(Oc2nc(Nc3ccc(N4CCN(C)CC4)cc3OC)ncc2Cl)c1  Not satisfied
1  CN(c1ccccc1CNc1nc(Nc2ccc3c(c2)CC(=O)N3)ncc1C(F)(F)F)S(C)(=O)=O      Satisfied
2  CC1=C(C(=O)Nc2cc3cn[nH]c3cc2F)C(c2ccc(C(F)(F)F)cc2)CC(=O)N1 (stereo unspecified)      Satisfied
3  CC(C)OC(=O)N1CCC(Oc2ncnc3c2cnn3-c2ccc(S(C)(=O)=O)cc2F)CC1      Satisfied
4  CNC(=O)Nc1ccc2c(c1)[C@@]1(CC2)OC(=O)N(CC(=O)N(Cc2ccc(F)cc2)[C@@H](C)C(F)(F)F)C1=O      Satisfied
5  COc1cc2ncn(-c3cc(OCc4ccccc4C(F)(F)F)c(C(N)=O)s3)c2cc1OC [GW843682X]      Satisfied

q: Could you tell me if the measured Population Membrane Permeable-Phenotype (%) of `CC(C)CC(=O)Nc1[nH]nc2c1CN(C(=O)C1CCN(C)CC1)C2(C)C` reaches 4% or more?
a: Not satisfied

q: Identify whether the reported Population Membrane Permeable-Phenotype (%) of the following compound is 4% or greater: `CCCSc1nc(N[C@@H]2C[C@H]2c2ccc(F)c(F)c2)c2nnn([C@@H]3C[C@H](OCCO)[C@@H](O)[C@H]3O)c2n1`
a: Satisfied

q: Has `O=c1[nH]c2ccccc2n1C1CCN(Cc2ccc(-c3[nH]c4cc5ncnc5cc4nc3-c3ccccc3)cc2)CC1` a recorded Population Membrane Permeable-Phenotype (%) greater than or equal to 4%?
a: Satisfied

q: Check this compound for Population Membrane Permeable-Phenotype (%) at or above 4%: `C=CC(=O)Nc1cccc(Sc2nc(Nc3ccc(N4CCN(C)CC4)cc3)ncc2Cl)c1`
a: Satisfied

q: Decide: is the reported value of Population Membrane Permeable-Phenotype (%) for `C=CC(=O)Nc1ccc2[nH]c(=O)n(C3CCN(Cc4ccc(-c5nc6cc[nH]c(=O)c6cc5-c5ccccc5)cc4)CC3)c2c1` equal to or greater than 4%?
a: Satisfied

q: State whether the measured Population Membrane Permeable-Phenotype (%) reaches 4%, counting equality as reaching it, for `COc1ccc(-c2ccc3ncc4c(c3c2)n(-c2ccc(N3CCNCC3)c(C(F)(F)F)c2)c(=O)n4C)cn1.O=C(O)/C=C\C(=O)O`
a: Satisfied

q: I'd appreciate it if you could say whether `CCc1ccc(OCc2ccccc2C(=O)Nc2ccc3nc(C)cc(N)c3c2)cc1.Cl` has Population Membrane Permeable-Phenotype (%) at least equal to 4%.
a: Not satisfied

q: Quick check, Population Membrane Permeable-Phenotype (%) >= 4%? `CN1CCN(Cc2ccc(Nc3ncc(Cl)c(Nc4ccccc4S(=O)(=O)N(C)C)n3)cc2)CC1`
a: Not satisfied
